Origin of measurements: patent US20030237104A1

# Tested on: CB6F1-HRAS2 mice
# condition.summary: mouse, in vivo
observation.type: Malignant Tumors Tg

Worked cases, answers included:
O=[N+]([O-])c1cc[n+]([O-])c2ccccc12 [4NQO, 4-Nitroquinoline-1-oxide]	+
C[N+]([O-])=NCO	+
[O-][n+]1ccc(NO)c2ccccc21 [4HAQO, 4-Hydroxyaminoquinoline-1-oxide]	++
CN(N=O)C(N)=O	+
O=P1(N(CCCl)CCCl)NCCCO1 (stereo not shown) [Cyclophosphamide]	+

Query: What Malignant Tumors Tg value was documented for this compound, S=C1NCCN1 ?
Result: +

Query: Please do the same for C=COC(N)=O [Vinyl carbamate] as well.
Result: ++
